target: human ether-à-go-go-related gene (hERG) potassium channel (human, UniProt Q12809); experiment: primary screen, population patch clamp on CHO cells stably expressing hERG; higher = less effect of the substance;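 note: peak tail current of the secondary pulse compared with the same well before compound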
Sequence (Q12809 whole entry, looked up): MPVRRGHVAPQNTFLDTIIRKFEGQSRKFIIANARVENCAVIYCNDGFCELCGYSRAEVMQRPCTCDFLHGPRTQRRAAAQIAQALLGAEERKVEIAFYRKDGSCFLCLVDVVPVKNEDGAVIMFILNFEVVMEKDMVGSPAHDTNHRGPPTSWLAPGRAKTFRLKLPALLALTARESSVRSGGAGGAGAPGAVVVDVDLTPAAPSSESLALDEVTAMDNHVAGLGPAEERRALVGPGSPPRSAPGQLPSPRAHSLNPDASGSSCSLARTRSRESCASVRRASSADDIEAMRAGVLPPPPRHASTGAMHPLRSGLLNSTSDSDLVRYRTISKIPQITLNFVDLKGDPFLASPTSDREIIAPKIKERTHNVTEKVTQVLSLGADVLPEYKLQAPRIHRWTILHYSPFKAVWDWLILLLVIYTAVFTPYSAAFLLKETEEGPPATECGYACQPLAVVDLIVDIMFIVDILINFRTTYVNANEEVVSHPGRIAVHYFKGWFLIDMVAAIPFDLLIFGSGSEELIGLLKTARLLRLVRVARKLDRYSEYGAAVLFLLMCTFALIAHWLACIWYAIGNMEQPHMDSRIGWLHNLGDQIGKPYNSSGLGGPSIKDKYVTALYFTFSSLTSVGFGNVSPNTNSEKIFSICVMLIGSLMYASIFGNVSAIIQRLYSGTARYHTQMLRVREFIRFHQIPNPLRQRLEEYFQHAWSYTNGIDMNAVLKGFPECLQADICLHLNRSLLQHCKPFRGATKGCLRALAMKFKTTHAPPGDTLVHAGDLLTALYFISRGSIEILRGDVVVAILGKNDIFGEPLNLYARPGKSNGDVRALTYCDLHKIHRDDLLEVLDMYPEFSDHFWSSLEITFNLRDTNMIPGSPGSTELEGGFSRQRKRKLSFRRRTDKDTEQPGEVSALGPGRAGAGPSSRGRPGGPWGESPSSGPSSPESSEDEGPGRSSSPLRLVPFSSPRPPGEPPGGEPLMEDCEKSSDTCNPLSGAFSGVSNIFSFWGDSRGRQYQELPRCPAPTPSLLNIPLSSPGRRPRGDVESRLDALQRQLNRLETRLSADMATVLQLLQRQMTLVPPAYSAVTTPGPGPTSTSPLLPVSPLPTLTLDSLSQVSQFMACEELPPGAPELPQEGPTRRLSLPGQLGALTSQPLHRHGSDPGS
Hit rate of the full screen: of about 310,000 compounds, about 14,000 (4.5%) showed an effect of 50% or more. The effect is printed as a negative number. The full list was thinned out, with strong results kept by preference.
Please enter criterion met where hERG current change (%, negative = inhibition) at 10uM is greater than or equal to 10%, and criterion not met where it is lower.

INSERT INTO measurements (molecule, cat) VALUES
  ('CC1CCCC(NC(=O)c2cccc(N3CCCC3=O)c2)C1C (centres unmarked)', 'criterion not met');

stdin: Exam item: decide whether the reported hERG current change (%, negative = inhibition) at 10uM for `CC1=CC(C)(C)Nc2ccc(Cc3ccc4c(c3)C(C)=CC(C)(C)N4)cc21` is at least 10%.
stdout: criterion met

stdin: Evaluate `CC1=CC(C)(C)Nc2ccc(C)cc21` : hERG current change (%, negative = inhibition) at 10uM at minimum 10%?
stdout: criterion not met

stdin: Say whether CC(c1ccco1)N(C(=O)c1ccccc1NS(=O)(=O)c1ccc(Cl)c([N+](=O)[O-])c1)c1ccccn1 (centres unmarked) shows hERG current change (%, negative = inhibition) at 10uM of 10% or more.
stdout: criterion not met

stdin: Is hERG current change (%, negative = inhibition) at 10uM for `CCc1ccc2c(c1)C(C)=CC(C)(C)N2` at or above 10%?
stdout: criterion met
